target: UniProt:P09619
Sequence (P09619 whole entry): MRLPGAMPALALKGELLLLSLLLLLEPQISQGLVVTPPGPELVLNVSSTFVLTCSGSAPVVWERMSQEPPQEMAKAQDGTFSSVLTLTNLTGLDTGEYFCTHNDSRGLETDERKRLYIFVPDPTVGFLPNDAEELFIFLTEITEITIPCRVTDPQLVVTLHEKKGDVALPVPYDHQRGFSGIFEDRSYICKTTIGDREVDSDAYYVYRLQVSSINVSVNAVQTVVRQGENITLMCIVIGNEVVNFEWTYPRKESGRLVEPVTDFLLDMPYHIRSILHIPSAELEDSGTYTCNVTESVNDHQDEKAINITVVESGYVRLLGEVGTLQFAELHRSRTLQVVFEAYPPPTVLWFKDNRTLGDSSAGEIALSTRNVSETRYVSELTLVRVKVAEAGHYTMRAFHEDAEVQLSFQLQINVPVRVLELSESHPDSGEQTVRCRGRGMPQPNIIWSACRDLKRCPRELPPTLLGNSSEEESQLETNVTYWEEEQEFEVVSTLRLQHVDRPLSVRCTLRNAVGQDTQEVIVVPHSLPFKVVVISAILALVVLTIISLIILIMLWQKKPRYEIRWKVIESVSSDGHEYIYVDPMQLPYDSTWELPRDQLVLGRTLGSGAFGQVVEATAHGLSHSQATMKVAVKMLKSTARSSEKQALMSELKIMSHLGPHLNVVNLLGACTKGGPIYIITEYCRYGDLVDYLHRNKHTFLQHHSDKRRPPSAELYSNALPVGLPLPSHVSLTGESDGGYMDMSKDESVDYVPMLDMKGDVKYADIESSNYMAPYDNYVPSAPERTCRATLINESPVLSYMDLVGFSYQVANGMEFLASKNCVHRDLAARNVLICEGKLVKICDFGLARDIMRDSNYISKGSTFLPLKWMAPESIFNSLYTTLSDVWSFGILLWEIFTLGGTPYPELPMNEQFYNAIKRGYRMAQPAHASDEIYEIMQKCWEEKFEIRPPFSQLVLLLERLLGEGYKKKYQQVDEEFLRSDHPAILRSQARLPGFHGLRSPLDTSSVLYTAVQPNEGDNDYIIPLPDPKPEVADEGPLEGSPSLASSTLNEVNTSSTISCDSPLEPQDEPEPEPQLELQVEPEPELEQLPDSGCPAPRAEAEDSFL
pIC50: −log10 of the molar value.
Endpoint: pIC50

I have this molecule here, C[C@H]1CC(=O)Nc2cc(C(=O)NCCC3CC3)ccc2N1C(=O)N1CC2CC2C1 (stereo partly specified) , and I need its recorded pIC50.
< 4.70

* * *

target: Histone-lysine N-methyltransferase SMYD3 (Homo sapiens); test: Binding affinity to recombinant human SMYD3 expressed in Escherichia coli assessed as change in melting temperature at 10 to 200 uM by SYPRO Orange staining based thermal shift assay; conditions: dose 10-200 µM
Endpoint: deltaTm (K)
One number for each entry, in K.

{"Compound": "CCCCNC(=O)c1ccc2c(c1)NC(=O)CC(C)N2C(=O)c1ccccc1F (configuration not stated)", "System Under Test": "Histone-lysine N-methyltransferase SMYD3 (Homo sapiens)", "Endpoint": "deltaTm", "Measured Number": 0.7}
{"Compound": "CCCCCNC(=O)c1ccc2c(c1)NC(=O)CC(C)N2C(=O)C1CCCC1 (configuration not stated)", "System Under Test": "Histone-lysine N-methyltransferase SMYD3 (Homo sapiens)", "Endpoint": "deltaTm", "Measured Number": 0}
{"Compound": "CCCNC(=O)c1ccc2c(c1)NC(=O)CC(C)N2C(=O)c1cccs1 (configuration not stated)", "System Under Test": "Histone-lysine N-methyltransferase SMYD3 (Homo sapiens)", "Endpoint": "deltaTm", "Measured Number": 0.2}
{"Compound": "CCCCCNC(=O)c1ccc2c(c1)NC(=O)CC(C)N2C(=O)c1ccc(C)cc1 (configuration not stated)", "System Under Test": "Histone-lysine N-methyltransferase SMYD3 (Homo sapiens)", "Endpoint": "deltaTm", "Measured Number": 0.2}
{"Compound": "CCCCCNC(=O)c1ccc2c(c1)NC(=O)CC(C)N2C(=O)c1ccccc1F (configuration not stated)", "System Under Test": "Histone-lysine N-methyltransferase SMYD3 (Homo sapiens)", "Endpoint": "deltaTm", "Measured Number": 0.2}

Record deltaTm per entry; entries follow.
1. CCCCNC(=O)c1ccc2c(c1)NC(=O)CC(C)N2C(=O)CCC1CCCC1 (configuration not stated)
2. CCCCNC(=O)c1ccc2c(c1)NC(=O)CC(C)N2C(=O)c1cccc(F)c1 (configuration not stated)

1: 0.4; 2: 0

* * *

I'd appreciate it if you could supply solubility kinetic values for the items below.
test: Kinetic solubility of the compound at pH 6.5; type: physicochemical; settings: buffer, read-out: Kinetic_solubility

Answered examples (4):
{"Compound": "C[C@H]1CC(=O)Nc2cc(C(=O)NCCC3CC3)ccc2N1C(=O)N1CCC(F)(F)C1", "Endpoint": "solubility kinetic", "Result": "294 µg/mL"}
{"Compound": "CC1CC(=O)Nc2cc(C(=O)NCCC3CC3)ccc2N1C(=O)c1ccccc1 (racemic)", "Endpoint": "solubility kinetic", "Result": "95.5 µg/mL"}
{"Compound": "C[C@H]1CC(=O)Nc2cc(C(=O)NCCC3CC3)ccc2N1C(=O)N1CC2CC2C1 (some centres undefined)", "Endpoint": "solubility kinetic", "Result": "363 µg/mL"}
{"Compound": "C[C@H]1CC(=O)Nc2cc(C(=O)NCCC3CC3)ccc2N1C(=O)N1CCN(CCO)CC1", "Endpoint": "solubility kinetic", "Result": "254 µg/mL"}

Record solubility kinetic per entry; entries follow.
1. C[C@@H]1CC(=O)Nc2cc(C(=O)NCCC3CC3)ccc2N1C(=O)N1CCC(N)CC1
2. C[C@H]1CC(=O)Nc2cc(C(=O)NCCC3CC3)ccc2N1C(=O)N1CCC(F)(F)CC1

["320 µg/mL", "231 µg/mL"]
